- target system: human calcitonin receptor (CTR) (Homo sapiens, UniProt P30988)
- Sequence (P30988 25-474): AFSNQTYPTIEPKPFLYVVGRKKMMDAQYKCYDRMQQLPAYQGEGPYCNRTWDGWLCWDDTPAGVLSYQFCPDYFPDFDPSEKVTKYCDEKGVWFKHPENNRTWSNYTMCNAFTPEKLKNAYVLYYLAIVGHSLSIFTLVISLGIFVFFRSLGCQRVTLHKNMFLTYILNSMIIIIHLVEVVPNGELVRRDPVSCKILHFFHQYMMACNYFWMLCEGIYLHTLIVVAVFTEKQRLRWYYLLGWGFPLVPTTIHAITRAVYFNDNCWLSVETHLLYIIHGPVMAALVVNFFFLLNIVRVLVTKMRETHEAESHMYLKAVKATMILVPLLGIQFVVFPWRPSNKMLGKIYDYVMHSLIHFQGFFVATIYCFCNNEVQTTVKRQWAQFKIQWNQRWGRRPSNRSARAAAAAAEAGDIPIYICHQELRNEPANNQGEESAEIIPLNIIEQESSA
- assay summary: Calcitonin receptor (CTR) cAMP Assay
- assay context: COS7-human CTR Clone #2 cells, cAMP dynamic 2 kit; read-out: Calcitonin Receptor cAMP Stimulation Activity: EC50
pEC50: −log10 of the molar value.
Label scheme for pEC50: lower than 8 is false, 8 and above is true.

Here are 2 compounds together with their reported answers.
compound: Cc1cc(-c2c(CCC3CCOCC3)nc3c(c2-c2cc4ccnc(N[C@@H]5CCc6ncccc65)c4s2)S(=O)(=O)CC3C(C)C)ncn1 (stereo partly drawn)
classification: false
--
compound: Cc1nnc(-c2c(CCC3CCOC(C)(C)C3)nc3c(c2-c2cc4ncnc(N[C@@H]5CCc6ncccc65)c4s2)S(=O)(=O)CC3C(C)C)o1 (stereo partly drawn)
classification: false

Is pEC50 at least 8? Consider `CC(C)c1nnc(-c2c(CCC34CCC(CC3)OC4)nc3c(c2-c2ccc4c(c2)oc(=O)n4Cc2ccc(C#N)c(F)c2)c(=O)n2n3CCC2)o1`
true

* * *

log10(EC50) overview
- target system: human calcitonin receptor (CTR) (Homo sapiens, UniProt P30988)
- Sequence (P30988 25-474): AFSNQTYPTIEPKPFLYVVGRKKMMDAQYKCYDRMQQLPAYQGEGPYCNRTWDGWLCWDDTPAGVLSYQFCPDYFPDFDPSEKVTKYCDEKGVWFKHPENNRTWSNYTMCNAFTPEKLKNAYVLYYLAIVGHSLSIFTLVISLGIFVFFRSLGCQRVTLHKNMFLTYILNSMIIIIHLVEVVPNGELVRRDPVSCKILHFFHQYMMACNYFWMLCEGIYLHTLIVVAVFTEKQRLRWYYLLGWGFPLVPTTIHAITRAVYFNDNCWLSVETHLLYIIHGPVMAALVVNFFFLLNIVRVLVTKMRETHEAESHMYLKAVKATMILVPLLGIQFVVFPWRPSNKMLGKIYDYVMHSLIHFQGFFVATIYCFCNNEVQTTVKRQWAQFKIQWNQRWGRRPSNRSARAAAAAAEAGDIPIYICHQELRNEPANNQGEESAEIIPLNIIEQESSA
- assay summary: Calcitonin receptor (CTR) cAMP Assay
- assay context: COS7-human CTR Clone #2 cells, cAMP dynamic 2 kit; read-out: Calcitonin Receptor cAMP Stimulation Activity: EC50
Please be aware that the numbers have been log10-transformed from EC50 in nM.

compound: Cc1nnc(-c2c(COc3ccc(F)cc3)nc3c(c2-c2ccc(C(=O)NCc4ccc(F)c(F)c4)s2)C(=O)N2CCC[C@@H]32)o1
log10(EC50): 1.88

compound: Cc1nnc(-c2c(C(C)C)nc3c(c2-c2ccc4c(c2)OCC(=O)N4Cc2ccc(F)cn2)C(=O)N2CCC[C@@H]32)o1
log10(EC50): 2.38

Proceeding to the next compound to report its log10(EC50).
Return reported log10(EC50) for target or system human calcitonin receptor (CTR) (Homo sapiens, UniProt P30988), item `Cc1cnc(-c2c(CCC34CCC(CC3)OC4)nc3c(c2-c2ccc4c(c2)OCC(=O)N4Cc2ncc(Cl)cc2F)c(=O)n2n3CCC2)o1` .
0.17

* * *

- target system: human calcitonin receptor (CTR) (Homo sapiens, UniProt P30988)
- assay summary: Calcitonin receptor (CTR) cAMP Assay
- assay context: COS7-human CTR Clone #2 cells, cAMP dynamic 2 kit; read-out: Calcitonin Receptor cAMP Stimulation Activity: EC50
pEC50: −log10 of the molar value.
pEC50 vs 8: at or above is Yes, below is No.

molecule: Cc1nnc(-c2c(CCC3CCOCC3)nc3c(c2-c2ccc4c(c2)oc(=O)n4Cc2ccc(C#N)c(F)c2)C(=O)N2CCOCC32O)o1 (centres unmarked)
target system: human calcitonin receptor (CTR) (Homo sapiens, UniProt P30988)
classification: Yes
--
molecule: Cc1nnc(-c2c(CCC3CCOCC3)nc3c(c2-c2ccc4nn(Cc5ccc(C#N)c(F)c5)cc4c2)C(=O)N2CCOC[C@@H]32)o1
target system: human calcitonin receptor (CTR) (Homo sapiens, UniProt P30988)
classification: No
--
molecule: CCc1nc2c(c(-c3ccc4c(c3)OC(C)(C)C(=O)N4Cc3ccc(F)cn3)c1-c1nnc(C)o1)C(=O)N1CC3CC21C3
target system: human calcitonin receptor (CTR) (Homo sapiens, UniProt P30988)
classification: No

# input for lookup
Please check the record Cc1nnc(-c2c(CCC3CCOCC3)nc3c(c2-c2cc4ccnc(N[C@@H]5CCc6ncccc65)c4o2)S(=O)(=O)CC3C(C)C)o1 (some centres unmarked) and state if its pEC50 is at or above 8.
No

* * *

pEC50 reference
- target system: human calcitonin receptor (CTR) and RAMP3 (AMY3) (Homo sapiens, UniProt O60896+P30988)
- Sequence (O60896 24-148, one chain of several): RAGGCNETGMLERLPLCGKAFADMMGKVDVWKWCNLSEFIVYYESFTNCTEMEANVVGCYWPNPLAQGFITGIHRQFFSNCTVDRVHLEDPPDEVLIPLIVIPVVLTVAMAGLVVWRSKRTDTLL
- assay summary: Amylin Receptor cAMP Assay I
- Type: cell-based
- assay context: COS-7/AMY3 cells, cAMP Hi-range Kit, read-out: Amylin Receptor cAMP Stimulation Activity: EC50
Expect pEC50 as a plain number equal to -log10 of the molar concentration.

molecule: Cc1nnc(-c2c(CCc3ccc(F)cc3)nc3c(c2-c2ccc(C(=O)NCc4ccc(F)c(F)c4)s2)S(=O)(=O)N2CCC[C@@H]32)o1 [Compound 17]
number: 7.18
--
molecule: Cc1nnc(-c2c(CC(O)c3ccc(F)cc3)nc3c(c2-c2ccc(C(=O)N[C@@H]4CCc5ccccc54)s2)C(=O)N2CCC[C@@H]32)o1 (stereo partly drawn) [Compound 51]
number: 6.26
--
molecule: Cc1nnc(-c2c(CCC3CCOCC3)nc3c(c2-c2ccc(C(=O)NCc4ccc(F)c(F)c4)s2)C(=O)N2CCC[C@@H]32)o1 [Compound 29]
number: 6.89
--
molecule: CO[C@@H]1C[C@@H](NC(=O)c2ccc(-c3c4c(nc(CCc5ccc(F)cc5)c3-c3nnc(C)o3)[C@@H]3CCCN3C4=O)s2)c2ccccc21 (stereo in doubt) [Compound 48]
number: 6.49
--
molecule: Cc1nnc(-c2c(CCc3ccc(F)cc3)nc3c(c2-c2ccc(C(=O)N[C@@H]4CCc5ncccc54)s2)C(=O)N2CCC[C@@H]32)o1 [Compound 28]
number: 6.50
--
molecule: Cc1nnc(-c2c(CCc3ccc(F)cn3)nc3c(c2-c2ccc(C(=O)NCc4ccc(F)c(F)c4)s2)C(=O)N2CCC[C@@H]32)o1 [Compound 8]
number: 5.44
--
molecule: CO[C@H]1C[C@@H](Nc2nccc3cc(-c4c5c(nc(CCC6CCOCC6)c4-c4nnc(C)o4)[C@@H]4CCCN4C5=O)sc23)c2ccccc21 [Compound 74]
number: 6.07
--
molecule: Cc1nnc(-c2c(CC(C)c3ccc(F)cc3)nc3c(c2-c2ccc(C(=O)NCc4ccc(F)c(F)c4)s2)C(=O)N2CCC[C@@H]32)o1 (stereo partly drawn) [Compound 9]
number: 7.27

Answer with the recorded pEC50 for the molecule listed here: Cc1ncoc1-c1c(CCc2ccc(F)cc2)nc2c(c1-c1ccc(C(=O)NCc3ccc(F)c(F)c3)s1)S(=O)(=O)N1CCC[C@@H]21 [Compound 33]
7.28

* * *

The following molecules are listed with their measured pEC50 values.
- target system: human calcitonin receptor (CTR) and RAMP3 (AMY3) (Homo sapiens, UniProt O60896+P30988)
- assay summary: Amylin Receptor cAMP Assay I
- Type: cell-based
- assay context: COS-7/AMY3 cells, cAMP Hi-range Kit, read-out: Amylin Receptor cAMP Stimulation Activity: EC50
Note on units: pEC50 is unitless, being -log10 of a concentration expressed in mol/L.

In the examples that follow, each entry is paired with its recorded pEC50.
molecule: Cc1nnc(-c2c(CCC3CCOCC3)nc3c(c2-c2cc4ccnc(NCc5ccc(F)c(F)c5)c4s2)C(=O)N2CCC[C@@H]32)o1 [Compound 63]
readout label: pEC50
number: 7.11

molecule: Cc1nnc(-c2c(CCc3ccc(F)cc3)nc3c(c2-c2ccc(C(=O)NCc4ccc(F)c(F)c4)s2)C(=O)N[C@H]3C(C)C)o1 [Compound 1]
readout label: pEC50
number: 7.36

molecule: Cc1nnc(-c2c(CCC3CCC(F)(F)CC3)nc3c(c2-c2ccc(C(=O)NCc4ccc(F)c(F)c4)s2)C(=O)N2CCC[C@@H]32)o1 [Compound 27]
readout label: pEC50
number: 6.76

Give the reported pEC50 for this molecule. Cc1nnc(-c2c(CCc3ccc(F)cc3F)nc3c(c2-c2ccc(C(=O)NCc4ccc(F)c(F)c4)s2)C(=O)N2CCC[C@@H]32)o1 [Compound 42]
6.94

Input Cc1nnc(-c2c(CCc3cnn(C)c3)nc3c(c2-c2ccc(C(=O)NCc4ccc(F)c(F)c4)s2)C(=O)N2CCC[C@@H]32)o1 [Compound 43] , output reported pEC50.
5.73
